Source: patent US11702422B2

Reported IC50 by item:
Tested on: IL-17A(FLAG-Tagged): IL-17RA(His-Tagged) (Homo sapiens, UniProt Q16552, K93Q)
Sequence (Q16552 with tags, fused parts or gaps K93Q): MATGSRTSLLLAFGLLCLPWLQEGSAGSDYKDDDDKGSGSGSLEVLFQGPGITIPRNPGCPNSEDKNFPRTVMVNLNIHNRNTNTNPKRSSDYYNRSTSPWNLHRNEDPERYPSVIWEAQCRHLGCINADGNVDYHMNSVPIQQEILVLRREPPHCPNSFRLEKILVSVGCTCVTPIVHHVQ
Protocol summary: IL-17A(FLAG-Tagged): IL-17RA(His-Tagged) Binding Disruption Eu-HTRF Assay
Study conditions: IL-17A/IL-17RA binding disruption, simple average if tested more than once
Value expressed in nM; do not type the unit.

Example molecules with recorded IC50:
Molecule	IC50, nM
CC(C)c1scnc1C(=O)N[C@H](c1cn2ncc([C@H](NC(=O)CCC(F)(F)F)C3CC3)cc2n1)C1CCC(F)(F)CC1 [Example 480]	140
O=C(CCC(F)(F)F)N[C@@H](c1cnn2cc([C@@H](NC(=O)c3ncnn3C3CC3)C3CCC(F)(F)CC3)nc2c1)C1CC1 [Example 103]	110
Cc1nonc1C(=O)N[C@H](c1cn2ncc([C@H](NC(=O)CCC(C)(F)F)C3CC3)cc2n1)C1CCC(F)(F)CC1 [Example 259]	120
Cc1nscc1C(=O)N[C@H](c1cn2ncc([C@H](NC(=O)CCC(F)(F)F)C3CC3)cc2n1)C1CCC(F)(F)CC1 [Example 161]	61
Cc1nonc1C(=O)N[C@H](c1cn2ncc(C(CC#N)NC(=O)CC3CC(F)(F)C3)cc2n1)C1CCC(F)(F)CC1 (single isomer, unassigned) [Example 397]	120
CC1(c2nocc2C(=O)N[C@H](c2cn3ncc([C@H](NC(=O)CCC(F)(F)F)C4CC4)cc3n2)C2CCC(F)(F)CC2)COC1 [Example 100]	160
CC(CC(=O)N[C@@H](c1cnn2cc([C@@H](NC(=O)c3nonc3C3CC3)C3CCC(F)(F)CC3)nc2c1)C1CC1)C(F)(F)F (single isomer, unassigned) [Example 300]	110
O=C(CCC(F)(F)F)N[C@@H](c1cnn2cc([C@@H](NC(=O)c3cnn(CC4CC4(F)F)n3)C3CCC(F)(F)CC3)nc2c1)C1CC1 (stereo partly shown) [Example 93]	150
CC(C)(F)c1nonc1C(=O)N[C@H](c1cn2ncc([C@H](NC(=O)CCC(F)(F)F)C3CC3)cc2n1)C1CCC(F)(F)CC1 [Example 388]	85

Note: attention shifts to another entry.
Exercise: Tell me the measured IC50 of O=C(CCC(F)(F)F)N[C@@H](c1cnn2cc([C@@H](NC(=O)c3cnoc3C3CC3)C3CCC(F)(F)CC3)nc2c1)C1CC1 [Example 84] , please.
Key: 80

====

Tested on: IL-17A-induced G-CSF production in human normal keratinocyte (NHK)
Protocol summary: NHK Assay: IL-17A-induced G-CSF production in human normal keratinocytes
Format: cell-based
Study conditions: adult normal human keratinocytes, IL-17A 5 ng/mL, 24 h, simple average if tested more than once
Outcome measure: IC50

Look over these answered cases.
Compound	IC50
Cc1nonc1C(=O)N[C@H](c1cn2ncc(C(NC(=O)CC3CC(F)(F)C3)C(C)(C)O)cc2n1)C1CCC(F)(F)CC1 (single isomer, unassigned) [Example 445]	> 20 µM
O=C(CC1CC(F)(F)C1)NC(c1cnn2cc([C@@H](NC(=O)c3cnn(CCC(F)(F)F)c3)C3CCC(F)(F)CC3)nc2c1)C1CC1 (single isomer, unassigned) [Example 9]	> 20 µM

Now let's try a different one.
Exercise: Looking for the measured IC50 of Cc1nonc1C(=O)N[C@@H](COC(C)(C)C)c1cn2ncc(C(NC(=O)CCC(F)(F)F)C3CC3)cc2n1 (single isomer, unassigned) [Example 315] , can you help?
Key: > 20 µM
